# Target desc: Rap guanine nucleotide exchange factor 3 (Homo sapiens)
# Test details: Confirmatory qHTS for antagonist of cAMP-regulated guanine nucleotide exchange factor 3 (EPAC1) (AID 1645880); also: nearly all actives have a fitted effect of over 55% in size
# Recorded conditions: EPAC1 Rap1B-BODIPY-GDP exchange, fluorescence; series mostly up to 115 µM
Inconclusive results are not listed. Activity calls are given as the source filed them. Calls follow the shape of the dose curve; as a rule, active = well fitted inhibition curve with a large enough effect; inconclusive = small, poorly fitted or top-dose-only effect; inactive = no such curve, though single readings can be large or run the other way.
API: response.call in active, inactive

Compound | Category
COc1ccc(-n2c(O)c(/C=C/C=Nc3ccccc3)c(=O)[nH]c2=O)cc1 | inactive
CC1=C(O)C(=O)C=C2C1=CC=C1C2(C)CCC2(C)C3CC(C)(C(=O)O)CCC3(C)CCC12C (configuration not stated) | active

Called result for O=C1NC(=S)NC(=O)C1=Cc1cccn1-c1ccc(O)cc1 active

Called result for Cc1c2cnn(CC(=O)N3CCC4(CC3)OCCO4)c(=O)c2c(C)n1Cc1ccc(F)cc1 inactive

Called result for Cc1ccc(N2C(=O)NC(=O)/C(=C\C=C\c3ccco3)C2=O)cc1C active

Called result for CCOC(=O)[C@]12Cc3cc(Cl)ccc3[C@H]1N(C1CCCCC1)C(=O)c1ccccc12 inactive

Called result for COc1ccc(N2C(=O)NC(=O)/C(=C/c3ccc([N+](=O)[O-])s3)C2=O)cc1 active
